test: sensitizers of A549 cells to miR-34 induction, primary screen, imaging, A549 dox-inducible miR-34, nuclei and caspase counts (AID 1347080); conditions: A549 miR-34 inducible, Hoechst nuclei count, 48 h; measured here: total cells with miR-34 induction; stronger effect = lower value; further: test concentration not given here
Readout: cell count
The answer should be a number; do not append a unit.

These solved cases illustrate the format of a correct answer.
CNCC[C@H](Oc1cccc2ccccc12)c1cccs1 | 10400
CC1(C)O[C@@H]2CC3C4CCC5=CC(=O)C=C[C@]5(C)[C@@]4(F)[C@@H](O)C[C@]3(C)[C@]2(C(=O)CO)O1 (some centres undefined) | 6650
CCc1cc(Cl)c(OC)c(C(=O)NCC2CCCN2CC)c1O (centres undefined) | 7250
CC(C)[C@H](N)C(=O)OCC(CO)OCn1cnc2c(=O)[nH]c(N)nc21 (some centres undefined) | 8710
CCCCCC(O)C1C(=O)OC(C)C(O)/C=C/C=C/C=C/C=C/C=C(\C)C(O)CC(O)CC(O)CC(O)CC(O)CC(O)CC1O (centres undefined) | 11500
C#C[C@]1(O)CCC2C3CCc4cc(OC5CCCC5)ccc4C3CC[C@@]21C (some centres undefined) | 4740
COc1cc([C@@H]2c3cc4c(cc3C(OC3O[C@@H]5COC(C)O[C@H]5[C@H](O)[C@H]3O)C3COC(=O)[C@@H]32)OCO4)cc(OC)c1O (some centres undefined) | 3220
CO[C@@]12[C@@H]3NC3CN1C1=C(C(=O)C(N)=C(C)C1=O)[C@@H]2COC(N)=O (some centres undefined) | 1840

Now consider the entry below.
Q. Item under review: "O=C(O)c1ccccc1-c1c2cc(I)c(=O)c(I)c-2oc2c(I)c(O)c(I)cc12" . Reported cell count?
A. 9160
